# Target of assay: P2Y purinoceptor 11 (Homo sapiens)
# Sequence (Q96G91 whole entry): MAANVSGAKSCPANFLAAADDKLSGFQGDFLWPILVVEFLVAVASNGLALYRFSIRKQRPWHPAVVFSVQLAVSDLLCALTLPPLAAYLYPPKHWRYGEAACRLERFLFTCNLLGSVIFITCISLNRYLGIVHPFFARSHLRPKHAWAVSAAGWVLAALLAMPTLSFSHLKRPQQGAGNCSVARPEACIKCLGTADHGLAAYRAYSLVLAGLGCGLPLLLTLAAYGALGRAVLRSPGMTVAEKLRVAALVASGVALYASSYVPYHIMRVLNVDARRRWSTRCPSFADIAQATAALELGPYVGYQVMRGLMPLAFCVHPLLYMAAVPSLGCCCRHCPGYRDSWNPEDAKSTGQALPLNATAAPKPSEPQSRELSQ
# Experimental details: Inhibitory concentration against P2Y purinoceptor 11 expressed in 1321N1 astrocytoma cells; n=3
# Type: cell-based
Value type: pKi
Please treat pKi as minus the base-10 logarithm of the molar concentration.

Example entries and their recorded answers appear below.
CCc1ccc(C(=O)Nc2ccc(S(=O)(=O)O)c3cc(S(=O)(=O)O)cc(S(=O)(=O)O)c23)cc1NC(=O)c1cccc(NC(=O)Nc2cccc(C(=O)Nc3cc(C(=O)Nc4ccc(S(=O)(=O)O)c5cc(S(=O)(=O)O)cc(S(=O)(=O)O)c45)ccc3CC)c2)c1	6.00
O=C(Nc1cccc(C(=O)Nc2cc(C(=O)Nc3ccc(S(=O)(=O)O)c4cc(S(=O)(=O)O)cc(S(=O)(=O)O)c34)ccc2-c2ccccc2)c1)Nc1cccc(C(=O)Nc2cc(C(=O)Nc3ccc(S(=O)(=O)O)c4cc(S(=O)(=O)O)cc(S(=O)(=O)O)c34)ccc2-c2ccccc2)c1	6.52
CC(C)c1ccc(C(=O)Nc2ccc(S(=O)(=O)O)c3cc(S(=O)(=O)O)cc(S(=O)(=O)O)c23)cc1NC(=O)c1cccc(NC(=O)Nc2cccc(C(=O)Nc3cc(C(=O)Nc4ccc(S(=O)(=O)O)c5cc(S(=O)(=O)O)cc(S(=O)(=O)O)c45)ccc3C(C)C)c2)c1	6.35

Would you kindly look at the next entry?
Quick one: pKi of Cc1ccc(C(=O)Nc2ccc(S(=O)(=O)O)c3cc(S(=O)(=O)O)cc(S(=O)(=O)O)c23)cc1NC(=O)Nc1cc(C(=O)Nc2ccc(S(=O)(=O)O)c3cc(S(=O)(=O)O)cc(S(=O)(=O)O)c23)ccc1C ?
5.12
